Catalogue of compounds with associated TGI
test system: PC-3 prostate; assay: NCI tumour cell line growth inhibition, 48 h
Provide only the numeric value, understood in µM.

COC(=O)C1=C(OC(=O)/C=C/c2ccc(Cl)cc2)C(C(=O)OC)[C@@]2(O)[C@@H](C(=O)OC)[C@H](C)C[C@@H]1[C@@H]2C(=O)OC (some centres undefined): 69
CC1CCC2(CC1)NC1=C(CC(C)CC1)C1=C2CC(C)CC1 (centres undefined): 47.9
CC1OC(OC2C(OC3CCC4(C)C(CCC5(C)C4CC=C4C6CC(C)(C)CCC6(C(=O)O)CCC45C)C3(C)CO)OCC(O)C2O)C(O)C(O)C1O (centres undefined): 29.1
CN(Cc1cc(Cl)cc(Cl)c1O)Cc1c(O)ccc2ccccc12: 30.7
O=C1C=C(OCCCCl)C(=O)c2c(O)ccc(O)c21: 3.98

Here is another compound to look at.
Data request, read-out TGI, for "COc1ccc2cc(-c3nc(N)nc(N4N=C(C)CC4(C)C)n3)c(=N)oc2c1"
39.2
